Test system: Es-2
EXPERIMENT: Primary qHTS to identify gynecologic anti-cancer compounds using libraries of approved drugs and bioactive compounds (AID 1345084); note: nearly all actives have a fitted effect of over 55% in size
CONDITION PARAMETERS: Gynecologic cancer cell panel viability, ATPlite luminescence, 48 h; series mostly up to 57.5 µM
Inconclusive results are not listed. Activity calls are given as the source filed them. Calls come from the whole dose curve; as a rule, active = well fitted cell-killing curve with a large enough effect; inconclusive = small, poorly fitted or top-dose-only effect, or effect the other way; inactive = flat fitted curve, though single readings scatter.
// allowed return values: yes for active, no for inactive

# example entries with known answers
COMPOUND: CN(CC1COCCO1)S(=O)(=O)Nc1ccc2ccc3ncc(-c4cnn(C)c4)cc3c(=O)c2c1 (stereo not drawn)
CATEGORY: no
--
COMPOUND: C=C(C)C(=O)OC1CC2(C)OC(=CC2=O)C(=C)CC2OC(=O)C(=C)C12 (stereo not drawn)
CATEGORY: yes
--
COMPOUND: CC(=O)OCC(=O)[C@@]12O[C@@H]1C[C@H]1[C@@H]3CC=C4C[C@@H](O)CC[C@]4(C)[C@H]3CC[C@@]12C
CATEGORY: no
--
COMPOUND: COc1cc(F)c(C(C)C)cc1-c1ccc(C(F)(F)F)cc1CN1C(=O)OC(c2cc(C(F)(F)F)cc(C(F)(F)F)c2)C1C (stereo not drawn)
CATEGORY: no

input: How was COc1ccc(NC(=O)c2ccc(-c3ccc(-c4nnc(C)o4)cc3C)cc2)cc1N1CCN(C)CC1 classified in this test?
output: no

input: How was Cc1cc(OCCCS(C)(=O)=O)cc(C)c1-c1cccc(COc2ccc3c(c2)OCC3CC(=O)O)c1 (stereo not drawn) classified in this test?
output: no

input: How was CC(=O)c1c(C)cc2cccc(O)c2c1O[C@@H]1O[C@H](CO)[C@@H](O)[C@H](O)[C@H]1O classified in this test?
output: no

input: How was CCCSc1nc(N[C@@H]2C[C@H]2c2ccc(F)c(F)c2)c2nnn([C@@H]3C[C@H](OCCO)[C@@H](O)[C@H]3O)c2n1 classified in this test?
output: no
